# target or test system: Polyspecificity reagent (PSR): biotinylated soluble membrane proteins of CHO cells
# assay details: flow cytometry, biotinylated PSR on IgG-presenting yeast
Entries and their Polyspecificity Reagent (PSR) Score (0-1) values follow.
Field: numeric (score 0-1). Do not append units.

# annotated cases, reported Polyspecificity Reagent (PSR) Score (0-1) shown
{"columns": ["binder", "test result"],
 "data": [
  ["anti-TIGIT antibody clone 29523 (antibody, V domains shown) VH: EVQLVESGGGVVQPGRSLRLSCAASGFTFGSYYMHWVRQAPGKGLEWVAVIWPDGSNKLYADSVKGRFTISRDNSKNTLYLQMNSLRAEDTALYYCAKPVPKSRALDVWGQGTMVTVSS VL: DIQLTQSPSSVSASVGDRVTITCRASQGISSWLAWYQQKPGKAPKLLIYGASSLQSGVPSRFSGSGSGTDFTLTISSLQPEDFATYYCQQAFYLPWTFGGGTKVEIK", 0.12],
  ["anti-TIGIT antibody clone 29513 (antibody, V domains shown) VH: QVQLVQSGAEVKKPGSSVKVSCKASGGTFQNYAISWVRQAPGQGLEWMGVIVPIFGTANYAQKFQGRVTVTADESTSTAYMELSSLRSEDTAVYYCARLHLGQKAYYGMDVWGQGTTVTVSS VL: DIQMTQSPSSLSASVGDRVTITCRASQSISSYLNWYQQKPGKAPKLLIYAASSLQSGVPSRFSGSGSGTDFTLTISSLQPEDFATYYCQQRYVFPPTFGGGTKVEIK", 0.01],
  ["anti-TIGIT antibody clone 29499 (antibody, V domains shown) VH: QLQLQESGPGLVKPSETLSLTCTVSGGSISSSRYYWAWIRQPPGKGLEWIGSIGTSGSTYYNPSLKSRVTISVDTSKNQFSLKLSSVTATDTAVYYCAIEGANFRDFGYVAFDIWGQGTMVTVSS VL: EIVMTQSPATLSVSPGERATLSCRASQSVSSNLAWYQQKPGQAPRLLIYGASTRATGIPARFSGSGSGTEFTLTISSLQSEDFAVYYCQQSPPWPRTFGGGTKVEIK", 0.1]
]}

Problem: Please report Polyspecificity Reagent (PSR) Score (0-1) for the following binder: anti-TIGIT antibody clone 26486 (antibody, V domains shown) VH: QVQLQESGPGLVKPSETLSLTCAVSGYSISSGYYWAWIRQPPGKGLEWIGSIYHSGSTYYNPSLKSRVTISVDTSKNQFSLKLSSVTAADTAVYYCAIEGANYYDFGYVAFDIWGQGTMVTVSS VL: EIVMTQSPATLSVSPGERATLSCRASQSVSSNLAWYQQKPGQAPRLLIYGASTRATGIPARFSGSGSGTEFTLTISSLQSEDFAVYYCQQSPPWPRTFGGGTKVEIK
Solution: 0

Problem: Please report Polyspecificity Reagent (PSR) Score (0-1) for the following binder: anti-TIGIT antibody clone 26493 (antibody, V domains shown) VH: EVQLVESGGGLVQPGRSLRLSCAASGFTFGDYAMHWVRQAPGKGLEWVSGITWNSGSIGYADSVKGRFTISRDNAKNSLYLQMNSLRAEDTALYYCAKPVPKSRGLDVWGQGTMVTVSS VL: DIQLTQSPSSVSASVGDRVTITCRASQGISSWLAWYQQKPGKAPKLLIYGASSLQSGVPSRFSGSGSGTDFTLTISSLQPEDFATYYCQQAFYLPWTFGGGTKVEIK
Solution: 0

Problem: Please report Polyspecificity Reagent (PSR) Score (0-1) for the following binder: anti-TIGIT antibody clone 29494 (antibody, V domains shown) VH: QVQLQESGPGLVKPSETLSLTCTVSGGSISSGSYYLAWIRQPPGKGLEWIGSIFRSGSTYYNPSLESRVTISVDTSKNQFSLKLSSVTAADTAVYYCAIEGANFKDFGYVAFDIWGQGTMVTVSS VL: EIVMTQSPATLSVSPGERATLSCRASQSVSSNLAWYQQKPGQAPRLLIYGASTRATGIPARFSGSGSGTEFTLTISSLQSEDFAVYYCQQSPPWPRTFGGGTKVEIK
Solution: 0

Problem: Please report Polyspecificity Reagent (PSR) Score (0-1) for the following binder: anti-TIGIT antibody clone 32931 (antibody, V domains shown) VH: QLQLQESGPGLVKPSETLSLTCTVSGGSISSGSYYLAWIRQPPGKGLEWIGSIFRSGSTYYNPSLESRVTISVDTSKNQFSLKLSSVTAADTAVYYCAIEGANFKDFGYVAFDIWGQGTTVTVSS VL: EIVMTQSPATLSVSPGERATLSCRASKSVSSNLAWYQQKPGQAPRLLIYFASTRATGIPARFSGSGSGTEFTLTISSLQSEDFAVYYCQQTSPWPRTFGGGTKVEIK
Solution: 0

Problem: Please report Polyspecificity Reagent (PSR) Score (0-1) for the following binder: anti-TIGIT antibody clone 29527 (antibody, V domains shown) VH: QVQLVESGGGVVQPGRSLRLSCAASGFTFSSSYMHWVRQAPGKGLEWVAVIGADGSNKYYADSVEGRFTISRDNSKNTLYLQMNSLRAEDTALYYCAKPVPRRRGLDVWGQGTMVTVSS VL: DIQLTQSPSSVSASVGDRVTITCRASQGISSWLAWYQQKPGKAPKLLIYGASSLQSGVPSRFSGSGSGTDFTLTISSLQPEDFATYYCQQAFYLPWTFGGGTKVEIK
Solution: 0.12

Problem: Please report Polyspecificity Reagent (PSR) Score (0-1) for the following binder: anti-TIGIT antibody clone 29520 (antibody, V domains shown) VH: QVQLVESGGGLVQPGRSLRLSCAASGFTFRDYAMHWVRQAPGKGLEWVSGITWNSGLIGYADSVKGRFTISRDNAKNSLYLQMNSLRAEDTALYYCAKPVPRLRGLDVWGQGTMVTVSS VL: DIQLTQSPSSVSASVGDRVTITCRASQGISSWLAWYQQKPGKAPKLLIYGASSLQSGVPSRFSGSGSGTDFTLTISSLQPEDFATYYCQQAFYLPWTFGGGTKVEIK
Solution: 0.32

Problem: Please report Polyspecificity Reagent (PSR) Score (0-1) for the following binder: anti-TIGIT antibody clone 31288 (antibody, V domains shown) VH: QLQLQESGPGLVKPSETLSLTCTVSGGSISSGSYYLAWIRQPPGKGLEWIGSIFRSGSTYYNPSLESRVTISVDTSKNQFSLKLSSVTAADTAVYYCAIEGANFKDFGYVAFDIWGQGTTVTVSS VL: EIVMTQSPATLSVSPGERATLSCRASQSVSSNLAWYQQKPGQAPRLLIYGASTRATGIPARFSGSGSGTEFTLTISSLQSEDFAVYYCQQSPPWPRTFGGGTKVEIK
Solution: 0
